- ASSAYED TARGET: T1, MPDZ_10, O75970
- T1 sequence (O75970 1624-1722, limits assumed, looked up): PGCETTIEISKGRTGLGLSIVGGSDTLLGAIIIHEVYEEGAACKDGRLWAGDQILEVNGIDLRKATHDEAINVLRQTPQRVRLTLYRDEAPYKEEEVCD
- PROTOCOL: holdup assay
- Design: key: below the threshold = too weak to quantify, mostly under pKd 3.1 to 4
- CONDITION INFO: plain residues with an end cap or a label only (N-terminal biotin on a linker: ahx)
Quick reference: pKd of the listed items.
OBSERVED PROPERTY: pKd

>  <BINDER>
SDSSGQEYSL [KCTD3, Q9Y597]

>  <OBSERVED VALUE>
3.56

$$$$
>  <BINDER>
TVICWPGSLV [LNX2, Q8N448]

>  <OBSERVED VALUE>
3.9

$$$$
>  <BINDER>
HNAFLSVTTV [PDZRN4, Q6ZMN7]

>  <OBSERVED VALUE>
3.75

$$$$
>  <BINDER>
RRRKRKRTYL [HPV49-L2, P36762]

>  <OBSERVED VALUE>
3.94

$$$$
>  <BINDER>
PSASCAVTAA [PDLIM4, P50479]

>  <OBSERVED VALUE>
3.76

$$$$
